Data provenance is patent US20260042769A1.

# TARGET_DESC: human ADRA2B receptor (Homo sapiens)
# Construct: expressed in transfected cells
# ASSAY_TEXT: GTPγS agonist assay, ADRA2B receptor
# Type: biochemical
# EXPERIMENTAL_SETUP: read-out: GTPase - Human Alpha2B EC50
# Method: GTP ? S Agonist Assays (ADRA2A, ADRA2B, and ADRA2C Receptors) Membranes were prepared for GTP ? S binding assays from CHO-K1 cells stably expressing human ADRA2A, ADRA2B, or ADRA2C receptor. Briefly, cells were grown in 5-layer cell culture flasks. Cells were washed with 50 mL of PBS and then dissociated with 0.05% trypsin. […] Membrane protein concentration was determined by BCA protein assay (Promega, Madison, WI) according to Promega guidelines. […]
Examples of molecules with documented EC50 follow.

Previously resolved entries follow.
1) Cc1cccc(C(Cc2ccncn2)c2cnc[nH]2)c1C (centres unmarked) [Compound 92]	0.01 to 0.05 µM
2) COc1nccc(CC(c2c[nH]cn2)c2cccc(C#N)c2C)n1 (centres unmarked) [Compound 171]	0.05 to 0.5 µM
3) COc1ccccc1[C@@H](Cc1ccccn1)c1cnc[nH]1 [Compound 32]	> 0.5 µM
4) COc1cccc(C[C@H](c2c[nH]cn2)c2cccc(Cl)c2C)n1 [Compound 14]	0.05 to 0.5 µM
5) COc1cccc(C[C@@H](c2cccc(Cl)c2)c2cnc[nH]2)n1 [Compound 21]	0.01 to 0.05 µM
6) COc1cccc(CC(c2c[nH]cn2)c2cccc3c2OC(F)(F)O3)n1 (centres unmarked) [Compound 125]	0.01 to 0.05 µM

Turning to the following molecule.
Please fill in: EC50 reported for COc1cccc(CC(c2c[nH]cn2)c2cccc(C)c2Cl)n1 (centres unmarked) [Compound 28] = < 0.01 µM

###

pEC50 by entry:
# TARGET_DESC: human ADRA2B receptor (Homo sapiens, UniProt P18089)
# Construct: expressed in transfected cells
# Sequence (P18089 whole entry): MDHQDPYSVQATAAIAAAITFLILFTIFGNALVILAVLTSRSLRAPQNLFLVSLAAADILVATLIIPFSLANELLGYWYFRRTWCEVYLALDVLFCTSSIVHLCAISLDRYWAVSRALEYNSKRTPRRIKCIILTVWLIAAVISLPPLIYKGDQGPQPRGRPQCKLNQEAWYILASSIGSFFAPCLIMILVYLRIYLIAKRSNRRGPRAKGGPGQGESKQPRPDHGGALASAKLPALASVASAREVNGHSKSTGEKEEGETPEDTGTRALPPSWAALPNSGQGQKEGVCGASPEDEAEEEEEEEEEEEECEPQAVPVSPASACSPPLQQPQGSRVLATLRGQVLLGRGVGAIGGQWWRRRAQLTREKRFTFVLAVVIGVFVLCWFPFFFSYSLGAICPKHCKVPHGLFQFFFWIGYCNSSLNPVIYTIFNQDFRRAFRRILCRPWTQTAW
# ASSAY_TEXT: GTPγS agonist assay, ADRA2B receptor
# Type: biochemical
# EXPERIMENTAL_SETUP: read-out: GTPase - Human Alpha2B EC50
# Method: GTP ? S Agonist Assays (ADRA2A, ADRA2B, and ADRA2C Receptors) Membranes were prepared for GTP ? S binding assays from CHO-K1 cells stably expressing human ADRA2A, ADRA2B, or ADRA2C receptor. Briefly, cells were grown in 5-layer cell culture flasks. Cells were washed with 50 mL of PBS and then dissociated with 0.05% trypsin. […] Membrane protein concentration was determined by BCA protein assay (Promega, Madison, WI) according to Promega guidelines. […]
pEC50: −log10 of the molar value.

Sample records with pEC50:
1. Cc1ccnc(C[C@@H](c2cnc[nH]2)c2cccc(C)c2C)n1 [Compound 79]	6.30 to 7.30
2. COc1ncc(C[C@H](c2c[nH]cn2)c2cccc(Cl)c2C)cn1 [Compound 109]	> 8.00
3. Cc1cncc(C[C@H](c2cnc[nH]2)c2cccc(C)c2C)n1 [Compound 82]	6.30 to 7.30
4. COc1cccc(C[C@@H](c2c[nH]cn2)c2cccc(Cl)c2OC)n1 [Compound 8]	< 6.30
5. Cc1nnc(CC(c2c[nH]cn2)c2cccc(C)c2C)o1 (stereo not drawn) [Compound 241]	7.30 to 8.00

Query FC(F)(F)Oc1ccccc1[C@@H](Cc1ccccn1)c1cnc[nH]1 [Compound 30] yields pEC50 of < 6.30

Measured pEC50, Fc1c(Cl)cccc1C(Cc1cccnn1)c1c[nH]cn1 (stereo not drawn) [Compound 219] : < 6.30

For Cc1c(Cl)cccc1[C@@H](Cc1cccnc1)c1cnc[nH]1 [Compound 63] the compound record lists pEC50 as > 8.00

Given item Cc1cc(C)nc(CC(c2cnc[nH]2)c2cccc(C)c2C)c1 (stereo not drawn) [Compound 95] , the value recorded as its pEC50 is > 8.00
